SYSTEM_NAME: HLA-A*02:02
ASSAY: IEDB peptide-MHC binding, purified MHC/competitive/radioactivity; bounds were set here for any values at or beyond the usual limits of such assays
TEST_CONTEXT: source organism: Vaccinia virus WR
Hi there, I'd appreciate the recorded IC50 for every entry that follows.

Some sequences with known IC50 results, for comparison:
RESIDUE_CODES	IC50
GMMQNDYGGM	103 nM
DTLVKSGLT	1950 nM
MMNITRLEVI	85 nM
NVIGLIVIL	85 nM
VLPFDIKYI	135 nM

Dear colleague, could you send me IC50 for each of the items below? Thanks.
1. NILMDSIFV
2. KLYIALCKV
3. SIRCVKYLL
4. DLFMSHVKSV
5. KIDILQMREI
6. YMSNLFDIPL
7. QIGGEAIFLI

Reply:
1. 252 nM
2. 16 nM
3. 107 nM
4. 3380 nM
5. 1280 nM
6. 19 nM
7. 8.2 nM

Quick request: IC50 for each listed item, please.
1. IVYGRSNAI
2. IVVPVIDRL
3. ALVSDCASTI
4. NVKSKLLWFL
5. IVDSMIIGHI
6. LLLENKSLTI

Reply:
1: 15 nM; 2: 144 nM; 3: 94 nM; 4: 2290 nM; 5: 507 nM; 6: 982 nM

----------
SYSTEM_NAME: HLA-A*02:01
ASSAY: IEDB peptide-MHC binding, purified MHC/competitive/radioactivity; bounds were set here for any values at or beyond the usual limits of such assays
TEST_CONTEXT: source organism: Vaccinia virus WR
ASSAY_ENDPOINT: IC50 (nM)
Answers are plain numbers, in nM.

Take a look at these entries with their results.
RESIDUE_CODES	SYSTEM_NAME	ASSAY_ENDPOINT	MEASUREMENT
RISGSNIVI	HLA-A*02:01	IC50	3670
FTILEYLYIM	HLA-A*02:01	IC50	95
IVYCLNALV	HLA-A*02:01	IC50	102
TAYEINNEL	HLA-A*02:01	IC50	925

Look at each sequence and report its IC50.
1. VQTLISLNSM
2. KLHLISLLSL
3. MLPKQDIVGL
4. VQSVLRDISI

Reply:
[259, 97, 96, 497]

----------
SYSTEM_NAME: HLA-A*68:02
ASSAY: IEDB peptide-MHC binding, cellular MHC/competitive/fluorescence; bounds were set here for any values at or beyond the usual limits of such assays
TEST_CONTEXT: source organism: SARS-CoV1
ASSAY_ENDPOINT: pIC50
Answers are plain numbers, as −log10 of the molar value.

Please supply pIC50 for each of the following items, keeping them in order.
1. FLLNKEMYL
2. AQFLYLYAL
3. FLMSFTILCL
4. AQMGTLLIA
5. YLLGLSAIM

Reply:
[4.92, 5.02, 5.12, 4.91, 4.92]

----------
Give measured IC50 for each item. Keep answers brief.
SYSTEM_NAME: HLA-A*02:03
ASSAY: IEDB peptide-MHC binding, purified MHC/competitive/radioactivity; bounds were set here for any values at or beyond the usual limits of such assays
TEST_CONTEXT: source organism: Vaccinia virus WR
Answers are plain numbers, in nM.

Known results for sequences:
RESIDUE_CODES	UNIT_ABBREVIATION	IC50
MAAAKTPVI	nM	209
AIRAGYSIV	nM	0.21
IALCKVTVPT	nM	2220
CIVAAVIIM	nM	1420
MMNERDVSV	nM	0.27

For every listed record, write down its IC50.
1. SLTTIGTIA
2. YLGPRVCWL
3. YIRRNMINKL
4. RLRQDTEDIV
5. TTLLNETAKV
6. VIIMAINVFT
7. GLTTHCTKL

Reply:
1: 3.7; 2: 3.4; 3: 70; 4: 284; 5: 0.17; 6: 820; 7: 30

Okay, here is my list. What is IC50 for each of these?
1. ITHTNITTLL
2. AVLSEYETMV
3. SVIFYFISI
4. RTMPNESRV

Reply:
[101, 1.5, 75, 100]

Please give IC50 for each item listed below.
1. STDQDTMLFA
2. GLFDINVIGL
3. IVQSVLRDI
4. GVPHSVFIA

Reply:
4700
1.4
101
3630

Quick one: give me IC50 for each item below, same order please.
1. NVKSKLLWFL
2. TICLKNEGV

Reply:
633
120

----------
For each record, write down the corresponding pIC50.
SYSTEM_NAME: HLA-A*02:01
ASSAY: IEDB peptide-MHC binding, cellular MHC/competitive/fluorescence; bounds were set here for any values at or beyond the usual limits of such assays
TEST_CONTEXT: source organism: Vaccinia virus WR
pIC50: −log10 of the molar value.

RESIDUE_CODES	MEASUREMENT
DVSVSVGTGI	≤ 4.15
SVFAASKQQM	≤ 4.15

Consider now this further sequence.
For "SLKRNAEGI" the sequence record lists pIC50 as ≤ 4.15

----------
SYSTEM_NAME: HLA-A*02:06
ASSAY: IEDB peptide-MHC binding, purified MHC/competitive/radioactivity; bounds were set here for any values at or beyond the usual limits of such assays
TEST_CONTEXT: source organism: Vaccinia virus WR
Please note: IC50 exactly at 300 nM is -1. Only values below 300 nM get 1.

Study these solved cases before continuing.
RESIDUE_CODES	DISCRETE_LABEL
EMVEYLENQL	-1
YAGTIKESLL	-1
RMPTDMLKL	-1
AITLVVISVI	-1
KIILFQNNDI	-1

Ask: Quick check: does "HILHAYCGI" have IC50 under 300 nM?
Reply: -1

Ask: Hi there! Is IC50 for "CTINVNSLA" below 300 nM, do you know?
Reply: 1

Ask: Problem: For the sequence "FVDTMSIYIA" , is IC50 under 300 nM?
Reply: -1

Ask: Is 300 nM strictly greater than the sequence's reported IC50? sequence: "IVVPVIDRL"
Reply: 1

Ask: In the record for "NMCNSDVSV" , is IC50 less than 300 nM?
Reply: 1

Ask: Hello, I'm reviewing records and need to know if IC50 of "ILATLNTLI" is below 300 nM. Could you check?
Reply: 1

Ask: In plain terms, does "DINESMSQMV" come in under 300 nM for IC50?
Reply: -1

Ask: Does "TISGNIYSA" have IC50 strictly under 300 nM?
Reply: 1

----------
Exercise: for every item that follows, state its recorded IC50.
SYSTEM_NAME: HLA-A*02:01
ASSAY: IEDB peptide-MHC binding, cellular MHC/competitive/fluorescence; bounds were set here for any values at or beyond the usual limits of such assays
TEST_CONTEXT: source organism: Vaccinia virus WR
Numbers only, in µM.

Here's what some known entries look like.
RESIDUE_CODES	UNIT_ABBREVIATION	IC50
PTLDNILGIL	µM	63.7
ELPYDENGI	µM	8.48
QQLCTMERT	µM	46.7
MIKERRQITM	µM	24.9
ITPNNLNKI	µM	33.5

Hi, could you look up IC50 for each item in my list?
1. MVSIDEVAST
2. HASPTLFNA
3. AVSVYGAIT
4. KTNTKHCPKI
5. EMKYALINL
6. EQRSTAYEI
7. TMPTYKHLI

Reply:
1: 36.8; 2: 8.95; 3: 7.23; 4: 36.5; 5: 41.2; 6: 8.92; 7: 27.3

----------
SYSTEM_NAME: HLA-A*02:03
ASSAY: IEDB peptide-MHC binding, cellular MHC/competitive/fluorescence; bounds were set here for any values at or beyond the usual limits of such assays
TEST_CONTEXT: source organism: Influenza A virus
ASSAY_ENDPOINT: pIC50
Answers are plain numbers, as −log10 of the molar value.

Reference set, count: 6
RESIDUE_CODES	pIC50
VATTHSWI	4.21
FVETLARSI	5.21
AAFEDLRV	5.14
YLEKANKI	4.42
ATKRIRMA	4.92
SAFDERRNRYL	5.29

Batch: pIC50 for all items listed.
1. TATKRIRMA
2. SMGVYQILA

Reply:
1: 4.62; 2: 5.15

----------
Can you tell me IC50 for the items I'm about to list?
SYSTEM_NAME: HLA-A*02:03
ASSAY: IEDB peptide-MHC binding, purified MHC/competitive/radioactivity; bounds were set here for any values at or beyond the usual limits of such assays
TEST_CONTEXT: source organism: Vaccinia virus WR
Give bare numbers, in µM.

// solved cases for IC50 follow
RESIDUE_CODES	IC50 [µM]
TLVPVLEKKV	0.1
AAVIIMAINV	0.607
YIMRVMANNV	0.002
WVMDTLNGI	0.001
HINDQKFDDV	1.16
RTIDAINKCV	0.334
WVMDTLNGIM	0.194
NIKPVIVPDI	0.745
NTIDKSSPL	0.027
WLTPFEKEFT	1.55

Hi, could you look up IC50 for each item in my list?
1. HIGHHYIWI
2. PLHIVCSKT

Reply:
[0.899, 2.15]

Take each entry in turn and give its IC50.
1. GIADIRDKYM
2. VMYAFTTPLI
3. LLVQYGAKI
4. AAAKTPVIV
5. SQIFNIISYI
6. LVQYRILPMI
7. IVSHLRASTT
8. IADIRDKYM

Reply:
1. 0.048
2. 0.0048
3. 0.358
4. 1.42
5. 0.181
6. 1.2
7. 0.111
8. 0.23

For the 7 sequences below, give their IC50 values.
1. NISFKSINKV
2. AVTLNRIKIA
3. ATLNTLITLI
4. NMLDDFSAGA
5. VTKRDESSI
6. VMPEKRNVV
7. CQCTVQEFI

Reply:
1: 1.53; 2: 1.29; 3: 0.028; 4: 0.161; 5: 2.14; 6: 0.023; 7: 4.79

Answer for every listed entry: what is its IC50? The entries follow.
1. KLRSSPPIPM
2. VIRNEVNDT
3. SISSVLTIL
4. IVYGRSNAIL
5. MAFILGIIIT

Reply:
[0.134, 0.82, 0.004, 0.033, 2.83]
